System: NCI-H1048 cells
Protocol Text: MTT proliferation assay, NCI-H1048;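 note: Dose-response in 96-well plates over 8 or 10 concentration points, with exposure spanning 3-4 cell doublings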
Format: cell-based
Measurement Conditions: 5 days compound exposure, 1:3 serial dilution starting at 10 μM
*1 amine or outer side, *2 acyl side, *3 side chain or, on linkers, in order; H or OH if unused. Where a SMILES comes first, the peptide text is derived from it. Bridges are numbered along the chain shown (N, C = ends). [ ]: non-standard residue; d: D form. The star is where a group is joined. X50 = CN([C@@H](Cc1cc(Cl)ccc1-c1ccc(N2CCN(C3COC3)CC2)cc1)C(=O)[*:2])[*:1]; X186 = CN([C@@H](Cc1cc(Cl)ccc1-c1ccc(N2CCOCC2)cn1)C(=O)[*:2])[*:1]; X100 = CC(=O)NC1CC=C(c2ccc(Cl)cc2C[C@@H](C(=O)[*:2])N(C)[*:1])CC1; NMe3Pal(2-OiBu,5-Cl) = CN[C@@H](Cc1cc(Cl)cnc1OCC(C)C)C(=O)O; NMehhhLys(Me) = CN([C@@H](CCCCCCCN(C)[*:3])C(=O)[*:2])[*:1]; X180 = CN([C@@H](Cc1cc(F)ccc1-c1cnn2c1CCC2)C(=O)[*:2])[*:1]; NMe3Pal(2-OiPr,5-Cl) = CN[C@@H](Cc1cc(Cl)cnc1OC(C)C)C(=O)O; X206 = CN([C@@H](Cc1cc(Cl)cnc1Cc1cnn(C)c1)C(=O)[*:2])[*:1]; X22 = CN([C@@H](Cc1cc(Cl)ccc1-c1cnn(C)c1)C(=O)[*:2])[*:1]; NMe(hhhLys) = CN([C@@H](CCCCCCCN[*:3])C(=O)[*:2])[*:1]; NMe3Pal(2-OMe,5-Cl) = CN[C@@H](Cc1cc(Cl)cnc1OC)C(=O)O; Oxane2carbonyl(2R-CF3) = O=C([C@@]1(C(F)(F)F)CCCCO1)*; Cyclobutanecarbonyl(1-CF3) = O=C(C1(C(F)(F)F)CCC1)*; cBuCO(3,3-F2-1-CF3) = O=C(C1(C(F)(F)F)CC(F)(F)C1)*; Pro(trans-4-F) = O=C(O)[C@@H]1C[C@@H](F)CN1; Pivaloyl(3,3,3-F3) = CC(C)(C(=O)*)C(F)(F)F; X27 = O=C([C@]1(C(F)(F)F)CCCCO1)*; Gly(cPr) = N[C@H](C(=O)O)C1CC1
Examples of compounds with documented GI50 follow.
Measurement Name: GI50 (nM)

{"columns": ["Compound", "Target Entity", "Measurement Name", "Value Reported"],
 "data": [
  ["CC(C)C[C@@H]1NC(=O)[C@@H](N(C)C(=O)[C@@H](NC(=O)[C@@H]2C[C@@H](F)CN2C(=O)C2(C(F)(F)F)CC(F)(F)C2)C2CC2)CC=CCCCCNC(=O)[C@H](Cc2cc(Cl)ccc2C2=CCOCC2)N(C)C1=O", "NCI-H1048 cells", "GI50", 240],
  ["CC(C)C[C@@H]1NC(=O)[C@@H](N(C)C(=O)[C@@H](NC(=O)[C@@H]2C[C@@H](F)CN2C(=O)C2(C(F)(F)F)CCC2)C2CC2)CCCCCCCNC(=O)[C@H](Cc2cc(Cl)cnc2OC(C)C)N(C)C1=O [Example 138] ({Cyclobutanecarbonyl(1-CF3)}-[Pro(trans-4-F)][Gly(cPr)][NMe(hhhLys)]L[NMe3Pal(2-OiPr,5-Cl)]; lactam 3-C)", "NCI-H1048 cells", "GI50", 200],
  ["CC(C)C[C@@H]1NC(=O)[C@@H](N(C)C(=O)[C@@H](NC(=O)[C@@H]2C[C@@H](F)CN2C(=O)C2(C(F)(F)F)CC(F)(F)C2)C2CC2)CCCCCCCN(C)C(=O)[C@H](Cc2cc(Cl)ccc2-c2ccc(N3CCN(C4COC4)CC3)cc2)N(C)C1=O [Example 346] ({cBuCO(3,3-F2-1-CF3)}-[Pro(trans-4-F)][Gly(cPr)][NMehhhLys(Me)]L[X50]; lactam 3-C)", "NCI-H1048 cells", "GI50", 10],
  ["CC(=O)NC1CC=C(c2ccc(Cl)cc2C[C@H]2C(=O)N(C)CCCCCCC[C@H](N(C)C(=O)[C@@H](NC(=O)[C@@H]3C[C@@H](F)CN3C(=O)C3(C(F)(F)F)CC(F)(F)C3)C3CC3)C(=O)N[C@@H](CC(C)C)C(=O)N2C)CC1 (stereo partly drawn) [Example 60] ({cBuCO(3,3-F2-1-CF3)}-[Pro(trans-4-F)][Gly(cPr)][NMehhhLys(Me)]L[X100]; lactam 3-C)", "NCI-H1048 cells", "GI50", 10],
  ["CC(C)C[C@@H]1NC(=O)[C@@H](N(C)C(=O)[C@@H](NC(=O)[C@@H]2C[C@@H](F)CN2C(=O)C2(C(F)(F)F)CC(F)(F)C2)C2CC2)CCCCCCCNC(=O)[C@H](Cc2cc(F)ccc2-c2cnn3c2CCC3)N(C)C1=O [Example 214] ({cBuCO(3,3-F2-1-CF3)}-[Pro(trans-4-F)][Gly(cPr)][NMe(hhhLys)]L[X180]; lactam 3-C)", "NCI-H1048 cells", "GI50", 10],
  ["CC(C)COc1ncc(Cl)cc1C[C@H]1C(=O)N(C)CCCCCCC[C@H](N(C)C(=O)[C@@H](NC(=O)[C@@H]2C[C@@H](F)CN2C(=O)C2(C(F)(F)F)CCC2)C2CC2)C(=O)N[C@@H](CC(C)C)C(=O)N1C [Example 230] ({Cyclobutanecarbonyl(1-CF3)}-[Pro(trans-4-F)][Gly(cPr)][NMehhhLys(Me)]L[NMe3Pal(2-OiBu,5-Cl)]; lactam 3-C)", "NCI-H1048 cells", "GI50", 40],
  ["CC(C)C[C@@H]1NC(=O)[C@@H](N(C)C(=O)[C@@H](NC(=O)[C@@H]2C[C@@H](F)CN2C(=O)C2(C(F)(F)F)CCC2)C2CC2)CC=CCCCCN(C)C(=O)[C@H](Cc2cc(F)cnc2OC2CC2)N(C)C1=O", "NCI-H1048 cells", "GI50", 340],
  ["COc1ncc(Cl)cc1C[C@H]1C(=O)N(C)CCCCCCC[C@H](N(C)C(=O)[C@@H](NC(=O)[C@@H]2C[C@@H](F)CN2C(=O)C(C)(C)C(F)(F)F)C2CC2)C(=O)N[C@@H](CC(C)C)C(=O)N1C [Example 268] ({Pivaloyl(3,3,3-F3)}-[Pro(trans-4-F)][Gly(cPr)][NMehhhLys(Me)]L[NMe3Pal(2-OMe,5-Cl)]; lactam 3-C)", "NCI-H1048 cells", "GI50", 20],
  ["CC(C)C[C@@H]1NC(=O)[C@@H](N(C)C(=O)[C@@H](NC(=O)[C@@H]2C[C@@H](F)CN2C(=O)[C@@]2(C(F)(F)F)CCCCO2)C2CC2)CCCCCCCN(C)C(=O)[C@H](Cc2cc(Cl)cnc2Cc2cnn(C)c2)N(C)C1=O [Example 332] ({Oxane2carbonyl(2R-CF3)}-[Pro(trans-4-F)][Gly(cPr)][NMehhhLys(Me)]L[X206]; lactam 3-C)", "NCI-H1048 cells", "GI50", 10],
  ["CC(C)C[C@@H]1NC(=O)[C@@H](N(C)C(=O)[C@@H](NC(=O)[C@@H]2C[C@@H](F)CN2C(=O)[C@]2(C(F)(F)F)CCCCO2)C2CC2)CCCCCCCN(C)C(=O)[C@H](Cc2cc(Cl)ccc2-c2cnn(C)c2)N(C)C1=O [Example 183] (X27-[Pro(trans-4-F)][Gly(cPr)][NMehhhLys(Me)]L[X22]; lactam 3-C)", "NCI-H1048 cells", "GI50", 10],
  ["CC(C)COc1ncc(Cl)cc1C[C@H]1C(=O)N(C)CCCCCCC[C@H](N(C)C(=O)[C@@H](NC(=O)[C@@H]2C[C@@H](F)CN2C(=O)C2(C(F)(F)F)CC(F)(F)C2)C2CC2)C(=O)N[C@@H](CC(C)C)C(=O)N1C [Example 228] ({cBuCO(3,3-F2-1-CF3)}-[Pro(trans-4-F)][Gly(cPr)][NMehhhLys(Me)]L[NMe3Pal(2-OiBu,5-Cl)]; lactam 3-C)", "NCI-H1048 cells", "GI50", 60],
  ["CC(C)C[C@@H]1NC(=O)[C@@H](N(C)C(=O)[C@@H](NC(=O)[C@@H]2C[C@@H](F)CN2C(=O)C2(C(F)(F)F)CC(F)(F)C2)C2CC2)CCCCCCCN(C)C(=O)[C@H](Cc2cc(Cl)ccc2-c2ccc(N3CCOCC3)cn2)N(C)C1=O [Example 382] ({cBuCO(3,3-F2-1-CF3)}-[Pro(trans-4-F)][Gly(cPr)][NMehhhLys(Me)]L[X186]; lactam 3-C)", "NCI-H1048 cells", "GI50", 90]
]}

----------
Target Entity: CyclinE1/CDK2 (Homo sapiens)
Construct: purchased Eurofins, discovery 14-475
Protocol Text: Fluorescence Polarization (FP) competitive binding assay, Cyclin E1/Cdk2;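 note: readings taken after two-hour equilibration at room temperature in HEPES buffer with NaCl, DTT, NP-40 and BSA, IC50 fitted from eight-concentration serial dilution series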
pIC50: −log10 of the molar value. *1 amine or outer side, *2 acyl side, *3 side chain or, on linkers, in order; H or OH if unused. Where a SMILES comes first, the peptide text is derived from it. Bridges are numbered along the chain shown (N, C = ends). [ ]: non-standard residue; d: D form. The star is where a group is joined. X127 = CN([C@@H](Cc1cc(F)ccc1-c1cnn(S(=O)(=O)C2CC2)c1)C(=O)[*:2])[*:1]; X209 = CN([C@@H](Cc1cc(Cl)ccc1-c1cnc2nn(C)cc2c1)C(=O)[*:2])[*:1]; NMehhhLys(Me) = CN([C@@H](CCCCCCCN(C)[*:3])C(=O)[*:2])[*:1]; Spiro(3.3)heptane2CO(2-CF3) = O=C(C1(C(F)(F)F)CC2(CCC2)C1)*; X131 = CN([C@@H](Cc1cc(F)cnc1-c1cnn(C)c1)C(=O)[*:2])[*:1]; X22 = CN([C@@H](Cc1cc(Cl)ccc1-c1cnn(C)c1)C(=O)[*:2])[*:1]; X199 = CN([C@@H](Cc1cc(Cl)ccc1C1=CCOC1)C(=O)[*:2])[*:1]; NMe3Pal(2-OMe,5-Cl) = CN[C@@H](Cc1cc(Cl)cnc1OC)C(=O)O; Oxane2carbonyl(2R-CF3) = O=C([C@@]1(C(F)(F)F)CCCCO1)*; Cyclobutanecarbonyl(1-CF3) = O=C(C1(C(F)(F)F)CCC1)*; cBuCO(3,3-F2-1-CF3) = O=C(C1(C(F)(F)F)CC(F)(F)C1)*; Pro(trans-4-F) = O=C(O)[C@@H]1C[C@@H](F)CN1; Gly(cPr) = N[C@H](C(=O)O)C1CC1

{"columns": ["Compound", "pIC50"],
 "data": [
  ["CC(C)C[C@@H]1NC(=O)[C@@H](N(C)C(=O)[C@@H](NC(=O)[C@@H]2C[C@@H](F)CN2C(=O)C2(C(F)(F)F)CCC2)C2CC2)CCCCCCCN(C)C(=O)[C@H](Cc2cc(F)cnc2-c2cnn(C)c2)N(C)C1=O [Example 245] ({Cyclobutanecarbonyl(1-CF3)}-[Pro(trans-4-F)][Gly(cPr)][NMehhhLys(Me)]L[X131]; lactam 3-C)", 6.66],
  ["COc1ncc(Cl)cc1C[C@H]1C(=O)N(C)CCCCCCC[C@H](N(C)C(=O)[C@@H](NC(=O)[C@@H]2C[C@@H](F)CN2C(=O)[C@@]2(C(F)(F)F)CCCCO2)C2CC2)C(=O)N[C@@H](CC(C)C)C(=O)N1C [Example 223] ({Oxane2carbonyl(2R-CF3)}-[Pro(trans-4-F)][Gly(cPr)][NMehhhLys(Me)]L[NMe3Pal(2-OMe,5-Cl)]; lactam 3-C)", 7.00],
  ["CC(C)C[C@@H]1NC(=O)[C@@H](N(C)C(=O)[C@@H](NC(=O)[C@@H]2C[C@@H](F)CN2C(=O)C2(C(F)(F)F)CC(F)(F)C2)C2CC2)CCCCCCCN(C)C(=O)[C@H](Cc2cc(F)ccc2-c2cnn(S(=O)(=O)C3CC3)c2)N(C)C1=O [Example 252] ({cBuCO(3,3-F2-1-CF3)}-[Pro(trans-4-F)][Gly(cPr)][NMehhhLys(Me)]L[X127]; lactam 3-C)", 6.42],
  ["CC(C)C[C@@H]1NC(=O)[C@@H](N(C)C(=O)[C@@H](NC(=O)[C@@H]2C[C@@H](F)CN2C(=O)C2(C(F)(F)F)CC3(CCC3)C2)C2CC2)CCCCCCCN(C)C(=O)[C@H](Cc2cc(Cl)ccc2-c2cnn(C)c2)N(C)C1=O [Example 203] ({Spiro(3.3)heptane2CO(2-CF3)}-[Pro(trans-4-F)][Gly(cPr)][NMehhhLys(Me)]L[X22]; lactam 3-C)", 5.90],
  ["CC(C)C[C@@H]1NC(=O)[C@@H](N(C)C(=O)[C@@H](NC(=O)[C@@H]2C[C@@H](F)CN2C(=O)C2(C(F)(F)F)CC(F)(F)C2)C2CC2)CCCCCCCN(C)C(=O)[C@H](Cc2cc(Cl)ccc2C2=CCOC2)N(C)C1=O [Example 209] ({cBuCO(3,3-F2-1-CF3)}-[Pro(trans-4-F)][Gly(cPr)][NMehhhLys(Me)]L[X199]; lactam 3-C)", 6.27],
  ["CC(C)C[C@@H]1NC(=O)[C@@H](N(C)C(=O)[C@@H](NC(=O)[C@@H]2C[C@@H](F)CN2C(=O)C2(C(F)(F)F)CC(F)(F)C2)C2CC2)CCCCCCCN(C)C(=O)[C@H](Cc2cc(Cl)ccc2-c2cnc3nn(C)cc3c2)N(C)C1=O [Example 249] ({cBuCO(3,3-F2-1-CF3)}-[Pro(trans-4-F)][Gly(cPr)][NMehhhLys(Me)]L[X209]; lactam 3-C)", 6.23]
]}
